Test system: A549/ATCC NSCLC
experiment-description: NCI-60 one-dose screen, 48 h (100 = growth as untreated, 0 = no growth, -100 = all killed)
stated-conditions: 10 µM unless noted
Method: Growth inhibition of the A549/ATCC human Non-Small Cell Lung tumor cell line is measured as a screen for anti-cancer activity. Cells are grown in 96 well plates and exposed to the test compound for 48 hours. Compounds are tested at a single concentration, which is 10^-5 M for most compounds. The reported endpoint is percent growth (GI% or GIPRCNT), where numbers from 0 - 100% represent growth inhibition, and numbers from -100% - 0 represent cell death. […]
About 83,000 compounds went through this panel and 20% of them were active in at least one assay; those are over-represented in the sample as a whole.
Label Y when growth is at or above 20%; otherwise label N.

q: # check: growth of COc1ccc(N2CCN(C3=C(Cl)C(=O)c4ncccc4C3=O)CC2)cc1 is greater than or equal to 20%
a: Y

q: # check: growth of COc1cc2cc(Oc3ccc(NC(=O)c4cc(C(F)(F)F)cc(C(F)(F)F)c4)cc3)c(C)nc2cc1OCCN1CCOCC1 is greater than or equal to 20%
a: Y

q: # check: growth of N/C(=N\C(N)=N\c1nc2ccccc2s1)c1ccc(Cl)cc1 is greater than or equal to 20%
a: Y

q: # check: growth of CCOC(=O)c1c(NCC(=O)Nc2cccc([N+](=O)[O-])c2)sc(C(C)=O)c1C is greater than or equal to 20%
a: N

q: # check: growth of Cn1cc(-c2nnc(N)nc2-c2c[nH]c3ccc(Br)cc23)c2cc(Br)ccc21 is greater than or equal to 20%
a: Y

q: # check: growth of Nn1c(=O)n(-c2cccc(C(F)(F)F)c2)c(=O)c2cc(-c3ccc(F)cc3F)ccc21 is greater than or equal to 20%
a: N

q: # check: growth of Cc1[nH]c(C(=O)Nc2ccccc2OCc2cccc(C(=O)NC3CCNC3)c2)c(Cl)c1Cl (centres undefined) is greater than or equal to 20%
a: N

q: # check: growth of COc1ccc(C2C(C#N)=C(/N=C/c3ccc(Cl)cc3)Oc3c2sc2c(C)cccc32)cc1 (centres undefined) is greater than or equal to 20%
a: Y

q: # check: growth of CC1=C(C)C(=O)C(Nc2cccc(C(=O)OC(C)(C)C)c2)=C(Cl)C1=O is greater than or equal to 20%
a: Y

====

Tested on: SK-MEL-28 melanoma
experiment-description: NCI-60 one-dose screen, 48 h (100 = growth as untreated, 0 = no growth, -100 = all killed)
stated-conditions: 10 µM unless noted
The panel holds about 83,000 compounds, 20% with a hit somewhere; the sample as a whole holds those more often.
Label TRUE when growth is at or above 90%; otherwise label FALSE.

q: # check: growth of O=[N+]([O-])c1ccc(NC(=S)NNC(=S)Nc2ccc(F)cc2)cc1 is greater than or equal to 90%
a: TRUE

q: # check: growth of O=S(=O)(NCCCNc1nccc(-c2[nH]c(-c3ccccc3)nc2-c2ccc(F)c(O)c2)n1)c1ccc(C(F)(F)F)cc1 is greater than or equal to 90%
a: FALSE

q: # check: growth of COc1ccc(C(C)=C(c2ccc(OCCN3CCCCCC3)cc2)c2ccc(OCCN3CCCCCC3)cc2)cc1 is greater than or equal to 90%
a: FALSE

All figures here come from PubChem BioAssay (NCI).
